Collected CaCl2 mice In vivo, % values appear next to each entry.
Test system: calcium-induced arrythmias
Experiment: Calcium-induced arrhythmia model in mice (CaCl2-induced 2nd degree AV-block)
Format: in vivo
Details: calcium chloride induced arrythmia model
Where a SMILES comes first, the peptide text is derived from it. [ ]: non-standard residue; d: D form. The star is where a group is joined. Dnp = O=[N+]([O-])c1ccc(*)c([N+](=O)[O-])c1; Hyp = O=C(O)[C@@H]1C[C@@H](O)CN1; Pip = O=C(O)[C@@H]1CCCCN1; Thz = O=C(O)[C@@H]1CSCN1; Acm = CC(=O)NC*

- molecule: "NCC(=O)NCC(=O)N[C@@H](Cc1ccc(O)cc1)C(N)=O [H-GGY-NH2] (H-Gly-Gly-Tyr-NH2)"
  CaCl2 mice In vivo, %: "39 +/− 9%"
- molecule: "C[C@H](NC(=O)CN)C(=O)NCC(=O)N1CCCC[C@H]1C(=O)N1CCC[C@H]1C(=O)N[C@@H](Cc1ccc(O)cc1)C(N)=O [Compound 14, H-Gly-Ala-Gly-PC-Pro-Tyr-NH2] (H-GAG[Pip]PY-NH2)"
  CaCl2 mice In vivo, %: "21 +/− 11%"
- molecule: "NCC(=O)N[C@H](CC(N)=O)C(=O)N[C@@H](Cc1ccc(O)cc1)C(N)=O [H-G-DN-Y-NH2] (H-Gly-[dN]-Tyr-NH2)"
  CaCl2 mice In vivo, %: "37 +/− 10%"
- molecule: "NC(=O)CNC(=O)[C@H](CC(N)=O)NC(=O)[C@@H](N)Cc1ccc(O)cc1 [H-YNG-NH2] (H-Tyr-Asn-Gly-NH2)"
  CaCl2 mice In vivo, %: "34 +/− 9%"
- molecule: "CC(=O)N[C@@H](Cc1ccc(O)cc1)C(=O)N[C@@H](CC(=O)O)C(=O)N[C@@H](CC(N)=O)C(=O)NCC(N)=O [Ac-Y-D-N-G-NH2] (Ac-YDNG-NH2)"
  CaCl2 mice In vivo, %: "17 +/− 8%"
- molecule: "NCC(=O)N[C@@H](CCCCNc1ccc([N+](=O)[O-])cc1[N+](=O)[O-])C(=O)N[C@@H](Cc1ccc(O)cc1)C(N)=O [H-GK(DNP)Y-NH2] (H-Gly-Lys(Dnp)-Tyr-NH2)"
  CaCl2 mice In vivo, %: "25 +/− 7%"
- molecule: "C[C@H](NC(=O)CN)C(=O)NCC(=O)N1CSC[C@H]1C(=O)N1CCC[C@H]1C(=O)N[C@@H](Cc1ccc(O)cc1)C(N)=O [Compound 12, H-Gly-Ala-Gly-T4C-Pro-Tyr-NH2] (H-GAG[Thz]PY-NH2)"
  CaCl2 mice In vivo, %: "32 +/− 6%"
- molecule: "CC(=O)NCC(=O)N[C@@H](CC(=O)O)C(=O)N[C@@H](CC(N)=O)C(=O)N[C@@H](Cc1ccc(O)cc1)C(N)=O [Ac-G-D-N-Y-NH2] (Ac-GDNY-NH2)"
  CaCl2 mice In vivo, %: "19 +/− 8%"
- molecule: "CC(=O)N[C@@H](Cc1ccc(O)cc1)C(=O)N[C@H](CC(N)=O)C(=O)NCC(=O)O [Ac-Y-DN-G-OH] (Ac-Tyr-[dN]-Gly-OH)"
  CaCl2 mice In vivo, %: "44 +/− 10%"
- molecule: "NC(=O)C[C@@H](NC(=O)[C@@H](N)Cc1ccc(O)cc1)C(=O)NCC(=O)O [H-Y-DN-G-OH] (H-Tyr-[dN]-Gly-OH)"
  CaCl2 mice In vivo, %: "39 +/− 9%"
- molecule: "C[C@H](NC(=O)CN)C(=O)N[C@@H](CC(N)=O)C(=O)N[C@@H](Cc1ccc(O)cc1)C(N)=O [H-GANY-NH2] (H-GANY-NH2)"
  CaCl2 mice In vivo, %: "21 +/− 7%"
- molecule: "CC(=O)NCSC[C@H](NC(=O)[C@H](Cc1ccc(O)cc1)NC(=O)[C@@H]1CCCN1C(=O)[C@@H]1C[C@@H](O)CN1C(=O)CNC(=O)[C@H](C)NC(=O)CNC(=O)[C@@H](N)CSCNC(C)=O)C(N)=O [Compound 16] (H-C(Acm)GAG[Hyp]PYC(Acm)-NH2)"
  CaCl2 mice In vivo, %: "23 +/− 10%"
- molecule: "C[C@H](NC(=O)CN)C(=O)NCC(=O)N1C[C@H](O)C[C@H]1C(=O)N1CCC[C@H]1C(=O)N[C@@H](Cc1ccc(O)cc1)C(=O)N[C@@H](CC(N)=O)C(N)=O [H-AAP-10-Asn-NH2] (H-GAG[Hyp]PYN-NH2)"
  CaCl2 mice In vivo, %: "31 +/− 6%"

----------
System: calcium-induced arrythmias
Assay: Calcium-induced arrhythmia model in mice (CaCl2-induced 2nd degree AV-block)
Format: in vivo
Conditions: calcium chloride induced arrythmia model
[ ]: non-standard residue; d: D form. Hyp = O=C(O)[C@@H]1C[C@@H](O)CN1

- substance: "Ac-Gly-Asn-Tyr-NH2 [Compound 40]"
  measurement target: "calcium-induced arrythmias"
  CaCl2 mice Score: 2
- substance: "H-Gly-Asn-Tyr-NH2 [Compound 41]"
  measurement target: "calcium-induced arrythmias"
  CaCl2 mice Score: 2
- substance: "H-GAG[Hyp]PYKKKKKK-OH [Compound 48]"
  measurement target: "calcium-induced arrythmias"
  CaCl2 mice Score: 3
- substance: "3(4-hydroxyphenyl)propionyl-Pro-Hyp-Gly-Ala-Gly-Lys-Lys-Lys-Lys-Lys-Lys-NH2 [Compound 51]"
  measurement target: "calcium-induced arrythmias"
  CaCl2 mice Score: 1

----------
System: calcium-induced arrythmias
Test: Calcium-induced arrhythmia model in mice (CaCl2-induced 2nd degree AV-block)
Type: in vivo
Conditions: calcium chloride induced arrythmia model
Where a SMILES comes first, the peptide text is derived from it. [ ]: non-standard residue; d: D form. Hyp = O=C(O)[C@@H]1C[C@@H](O)CN1
endpoint: CaCl2 mice In vivo, %

- compound: "CC(=O)N[C@@H](Cc1ccc(O)cc1)C(=O)N1CCC[C@H]1C(=O)N1C[C@H](O)C[C@H]1C(=O)NCC(=O)N[C@@H](C)C(=O)NCC(=O)O [Compound 1, Ac-Tyr-Pro-4Hyp-Gly-Ala-Gly-OH] (Ac-YP[Hyp]GAG-OH)"
  endpoint: "CaCl2 mice In vivo, %"
  result: "50 +/− 20%"
- compound: "C[C@H](NC(=O)CN)C(=O)NCC(=O)N1C[C@H](O)C[C@H]1C(=O)N1CCC[C@H]1C(=O)N[C@@H](Cc1ccc(O)cc1)C(=O)N[C@@H](CCCCN)C(=O)N[C@@H](CCCCN)C(=O)N[C@@H](CCCCN)C(=O)N[C@@H](CCCCN)C(=O)N[C@@H](CCCCN)C(=O)N[C@@H](CCCCN)C(N)=O [Compound 50] (H-GAG[Hyp]PYKKKKKK-NH2)"
  endpoint: "CaCl2 mice In vivo, %"
  result: "33 +/− 17%"

----------
Collected CaCl2 mice Score values appear next to each entry.
Tested on: calcium-induced arrythmias
Assay: Calcium-induced arrhythmia model in mice (CaCl2-induced 2nd degree AV-block)
Format: in vivo
Conditions: calcium chloride induced arrythmia model
Description: The antiarrhythmic effects of compounds of this invention were tested in an in vivo model of calcium-induced arrythmias according to the model of Lynch et al.^[37]. […]. […] The anaesthesia was induced by s.c. administration in a dose of 0.05-0.075 μl/10 gram mouse. […] The lead II ECG signal was recorded continuously by positioning of a stainless steel ECG electrodes on the right forelimb and on the left hind limb. […]
endpoint: CaCl2 mice Score

- substance: "3-(4-hydroxyphenyl)propionyl-Pro-Hyp-Gly-Ala-Gly-OH [HP5, reference compound]"
  measurement target: "calcium-induced arrythmias"
  endpoint: "CaCl2 mice Score"
  number: 2
- substance: "3(4-hydroxyphenyl)propionyl-Pro-Hyp-Gly-Ala-Gly-Lys-Lys-Lys-Lys-Lys-Lys-OH [Compound 49]"
  measurement target: "calcium-induced arrythmias"
  endpoint: "CaCl2 mice Score"
  number: 3
- substance: "Cyclo(Tyr-Pro-4Hyp-Gly-Ala-Gly-Asn) [Compound 3]"
  measurement target: "calcium-induced arrythmias"
  endpoint: "CaCl2 mice Score"
  number: 2
- substance: "H-Gly-Ala-Gly-Asn-Tyr-NH2 [Compound 39]"
  measurement target: "calcium-induced arrythmias"
  endpoint: "CaCl2 mice Score"
  number: 2
